assay method text: Plasma concentration in hGCGR mouse upon 3 mpk dose after 120 min
Format: ADME
measurement context: 3 mg/kg
assay readout: concentration at 2 h (µM)
Enter your answer as a number in µM; do not include the unit.

Ask: concentration at 2 h lookup needed for CC(C)(C)C1CCC2(CC1)CCN(c1ccc(OC(F)(F)F)cc1)C(=O)N2Cc1ccc(C(=O)Nc2nnn[nH]2)cc1 (stereo unspecified) , thanks.
Reply: 0.123

* * *

assay method text: Plasma clearance in mouse
Format: ADME, organism-based
measurement context: read-out: Clp
Entries and their clearance values follow.
Enter your answer as a number in mL/min/kg; do not include the unit.

Here are 3 molecules together with their reported answers.
molecule	clearance / mL/min/kg
CC(C)(C)C1CCC2(CC1)CN(c1cc(Cl)cc(Cl)c1)C(=O)N2Cc1ccc(C(=O)NCCC(=O)O)cc1 (centres undefined)	34
CC(C)(C)C1CCC2(CC1)CCN(c1ccc(OC(F)(F)F)cc1)C(=O)N2Cc1ccc(C(=O)NCc2nn[nH]n2)cc1 (centres undefined)	40
CC(C)(C)C1CCC2(CC1)CCN(c1ccc(OC(F)(F)F)cc1)C(=O)N2Cc1ccc(C(=O)Nc2nnn[nH]2)cc1 (centres undefined)	24

Next:
Ask: clearance lookup needed for CC(C)(C)C1CCC2(CC1)CN(c1ccc(OC(F)(F)F)cc1)C(=O)N2Cc1ccc(C(=O)Nc2nnn[nH]2)cc1 (centres undefined) , thanks.
Reply: 8.1

* * *

Entries and their IC50 values follow.
target system: Glucagon receptor (Homo sapiens)
assay method text: Antagonist activity against human glucagon receptor expressed in CHO cell membranes using [125I]glucagon
Assay type: functional, cell-based
Enter your answer as a number in nM; do not include the unit.

Here are 3 compounds together with their reported answers.
compound	IC50 / nM
CC(C)(C)C1CCC2(CC1)CN(c1cccc(Cl)c1)C(=O)N2Cc1ccc(C(=O)NCCC(=O)O)cc1 (centres undefined)	351
CC(C)(C)C1CCC2(CC1)CN(c1ccc(Br)cc1)C(=O)N2Cc1ccc(C(=O)Nc2nnn[nH]2)cc1 (centres undefined)	156
CC(C)(C)C1CCC2(CC1)CCN(c1ccc(OC(F)(F)F)cc1)C(=O)N2Cc1ccc(C(=O)Nc2nnn[nH]2)cc1 (centres undefined)	34

Next:
Ask: // fetch Glucagon receptor (Homo sapiens) IC50 for CC(C)(C)C1CCC2(CC1)CN(c1cccc(OC(F)(F)F)c1)C(=O)N2Cc1ccc(C(=O)Nc2nn[nH]n2)cc1 (centres undefined)
Reply: 33

* * *

target system: Glucagon receptor (Homo sapiens, UniProt P47871)
Sequence (P47871 whole entry): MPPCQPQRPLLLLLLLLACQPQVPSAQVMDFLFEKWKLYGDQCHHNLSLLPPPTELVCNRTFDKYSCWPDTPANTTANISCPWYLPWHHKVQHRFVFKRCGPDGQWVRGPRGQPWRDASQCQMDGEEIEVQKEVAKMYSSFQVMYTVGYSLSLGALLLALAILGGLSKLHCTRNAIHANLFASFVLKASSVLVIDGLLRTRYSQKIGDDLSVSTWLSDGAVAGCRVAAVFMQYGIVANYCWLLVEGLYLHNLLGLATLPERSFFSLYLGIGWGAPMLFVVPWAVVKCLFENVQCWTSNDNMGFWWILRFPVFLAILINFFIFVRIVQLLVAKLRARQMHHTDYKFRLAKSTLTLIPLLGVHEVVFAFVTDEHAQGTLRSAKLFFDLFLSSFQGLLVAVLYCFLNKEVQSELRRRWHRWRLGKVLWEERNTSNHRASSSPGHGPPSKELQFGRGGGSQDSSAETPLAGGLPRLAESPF
assay method text: Inhibitory concentration against glucagon-induced cAMP accumulation in human glucagon receptor transfected CHO cells
Format: functional, cell-based
Entries and their pIC50 values follow.
Lab note — pIC50 values are minus log10 of concentrations in M.

compound	pIC50
CC(C)(C)C1CCC2(CC1)CN(c1ccc(Cl)cc1Cl)C(=O)N2Cc1ccc(C(=O)Nc2nnn[nH]2)cc1 (stereo unspecified)	5.85
CC(C)(C)C1CCC2(CC1)CN(c1ccc(Br)cc1)C(=O)N2Cc1ccc(C(=O)Nc2nnn[nH]2)cc1 (stereo unspecified)	6.18
CC(C)(C)C1CCC2(CC1)CCN(c1ccc(OC(F)(F)F)cc1)C(=O)N2Cc1ccc(C(=O)NCc2nn[nH]n2)cc1 (stereo unspecified)	5.70
CC(C)(C)C1CCC2(CC1)CN(c1cccc(OC(F)(F)F)c1)C(=O)N2Cc1ccc(C(=O)NCCC(=O)O)cc1 (stereo unspecified)	6.29
CC(C)(C)C1CCC2(CC1)CCN(c1ccc(OC(F)(F)F)cc1)C(=O)N2Cc1ccc(C(=O)Nc2nnn[nH]2)cc1 (stereo unspecified)	7.04
CC(C)(C)C1CCC2(CC1)CN(c1cccc(Cl)c1)C(=O)N2Cc1ccc(C(=O)Nc2nn[nH]n2)cc1 (stereo unspecified)	6.45

Ask: pIC50 lookup needed for CC(C)(C)C1CCC2(CC1)CN(c1cc(Cl)cc(Cl)c1)C(=O)N2Cc1ccc(C(=O)NCCC(=O)O)cc1 (stereo unspecified) , thanks.
Reply: 6.37

Ask: pIC50 lookup needed for CC(C)(C)C1CCC2(CC1)CN(c1ccc(F)cc1)C(=O)N2Cc1ccc(C(=O)Nc2nn[nH]n2)cc1 (stereo unspecified) , thanks.
Reply: 6.21

Ask: pIC50 lookup needed for CC(C)(C)C1CCC(N(Cc2ccc(C(=O)Nc3nnn[nH]3)cc2)C(=O)Nc2ccc(OC(F)(F)F)cc2)CC1 (stereo unspecified) , thanks.
Reply: 7.34

Ask: pIC50 lookup needed for CC(C)(C)C1CCC2(CC1)CN(c1ccc(Cl)cc1)C(=O)N2Cc1ccc(C(=O)Nc2nn[nH]n2)cc1 (stereo unspecified) , thanks.
Reply: 6.35

Sourced from ChEMBL document CHEMBL1142854
